Molecular target: Kappa-type opioid receptor (Mus musculus)
Test: Displacement of [125I]dynorphin from kappa opioid receptor in BALB/c mouse brain membrane at 5 uM by liquid scintillation counting relative to control
Assay type: cell membranes
Some compounds, each annotated with its measured residual activity.
MEASURED_PROPERTY: residual activity (%)

> print(dat)
                            chemical.string  reported.value
1      COc1ccccc1N1Cc2cccc(OC)c2OCc2ccccc21             119
2  COc1cccc2c1OCc1cc3c(cc1N(c1ccccc1)C2)OCO3             101
3  COc1ccc(N2Cc3cccc(OC)c3OCc3cc4c(cc32)OCO4)cc1             101
4          c1ccc(N2Cc3ccccc3OCc3ccccc32)cc1              87
5        COc1ccc(N2Cc3ccccc3OCc3ccccc32)cc1              81
6        COc1ccc2c(c1)COc1ccccc1CN2c1ccccc1              29
7    COc1ccc(N2Cc3cccc(OC)c3OCc3ccccc32)cc1              81

meta.source: ChEMBL document CHEMBL1770103
